Parameter pKd: see the listing below.
# tested system: T1, recombinant human FGF23 (R179Q) (human, UniProt Q9GZV9 25-251)
# T1 construct: also called rhFGF23(R179Q); hFGF23(R179Q)
# T1 sequence (looked up): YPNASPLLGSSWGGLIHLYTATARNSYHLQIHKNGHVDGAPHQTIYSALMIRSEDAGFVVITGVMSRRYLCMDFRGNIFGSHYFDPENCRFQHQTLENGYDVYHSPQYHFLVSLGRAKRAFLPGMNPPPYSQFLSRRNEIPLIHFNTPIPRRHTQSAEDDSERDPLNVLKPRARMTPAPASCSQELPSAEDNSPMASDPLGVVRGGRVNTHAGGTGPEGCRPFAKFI
# assay text: SPR, antibody captured on hIgG chip, rhFGF23(R179Q) analyte
Note on pKd: it is the negative log10 of concentration, concentration in mol/L.

[[record]]
binder = "UGX166 (antibody, human IgG1, kappa, V domains shown, also called UGX068; HC:S59Y) VH: QVQLVQSGAEVKKPGASVKVSCKASGYTFTNHYMHWVRQAPGQGLEWMGIINPISGSTYNAQKFQGRVTMTRDTSTSTVYMELSSLRSEDTAVYYCARDIVDAFDFWGQGTMVTVSS VL: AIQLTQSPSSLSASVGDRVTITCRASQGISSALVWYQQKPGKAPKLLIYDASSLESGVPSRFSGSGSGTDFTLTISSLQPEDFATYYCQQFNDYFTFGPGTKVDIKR"
observed_property = "pKd"
value = 10.65

[[record]]
binder = "UGX161 (antibody, human IgG1, kappa, V domains shown, also called HC:S59I) VH: QVQLVQSGAEVKKPGASVKVSCKASGYTFTNHYMHWVRQAPGQGLEWMGIINPISGSTINAQKFQGRVTMTRDTSTSTVYMELSSLRSEDTAVYYCARDIVDAFDFWGQGTMVTVSS VL: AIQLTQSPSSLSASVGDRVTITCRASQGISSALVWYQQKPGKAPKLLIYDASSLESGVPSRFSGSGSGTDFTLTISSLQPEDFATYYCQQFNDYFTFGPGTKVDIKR"
observed_property = "pKd"
value = 10.21

[[record]]
binder = "UGX162 (antibody, human IgG1, kappa, V domains shown, also called HC:S59L) VH: QVQLVQSGAEVKKPGASVKVSCKASGYTFTNHYMHWVRQAPGQGLEWMGIINPISGSTLNAQKFQGRVTMTRDTSTSTVYMELSSLRSEDTAVYYCARDIVDAFDFWGQGTMVTVSS VL: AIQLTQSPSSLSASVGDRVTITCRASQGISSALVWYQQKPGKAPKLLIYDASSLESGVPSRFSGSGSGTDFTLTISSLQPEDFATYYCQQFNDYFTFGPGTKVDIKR"
observed_property = "pKd"
value = 10.01

[[record]]
binder = "UGX126 (antibody, human IgG1, kappa, V domains shown, also called LC:S52D; S52D) VH: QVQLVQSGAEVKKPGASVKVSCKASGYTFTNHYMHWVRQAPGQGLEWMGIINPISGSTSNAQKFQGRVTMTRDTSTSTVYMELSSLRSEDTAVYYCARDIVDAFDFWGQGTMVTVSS VL: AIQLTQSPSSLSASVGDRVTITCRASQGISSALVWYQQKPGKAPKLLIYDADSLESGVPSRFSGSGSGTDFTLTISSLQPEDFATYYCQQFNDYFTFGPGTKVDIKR"
observed_property = "pKd"
value = 10.91

[[record]]
binder = "UGX157 (antibody, human IgG1, kappa, V domains shown, also called HC:I54Y; I54Y) VH: QVQLVQSGAEVKKPGASVKVSCKASGYTFTNHYMHWVRQAPGQGLEWMGIINPYSGSTSNAQKFQGRVTMTRDTSTSTVYMELSSLRSEDTAVYYCARDIVDAFDFWGQGTMVTVSS VL: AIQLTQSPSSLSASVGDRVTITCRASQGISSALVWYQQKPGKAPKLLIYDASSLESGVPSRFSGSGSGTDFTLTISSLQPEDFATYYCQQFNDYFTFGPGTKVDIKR"
observed_property = "pKd"
value = 11.12


Shifting focus to the binder that follows.
Can you share its pKd? I mean this binder: UGX188 (antibody, human IgG1, kappa, V domains shown, also called HC:S57E, HC:S59D) VH: QVQLVQSGAEVKKPGASVKVSCKASGYTFTNHYMHWVRQAPGQGLEWMGIINPISGETDNAQKFQGRVTMTRDTSTSTVYMELSSLRSEDTAVYYCARDIVDAFDFWGQGTMVTVSS VL: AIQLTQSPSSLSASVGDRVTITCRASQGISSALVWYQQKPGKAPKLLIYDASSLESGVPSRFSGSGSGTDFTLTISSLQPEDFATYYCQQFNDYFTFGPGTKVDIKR
10.74
